system: HCT-116; test: NCI tumour cell line growth inhibition, 48 h
Activity calls are given as the source filed them. No stated cut-off is given here; in the data, active = GI50 up to about 1.1 µM and inactive = higher.
Please state which outcome applies, choosing from class 1 for active, class 0 for inactive

input: I would be grateful if you could indicate the recorded call for "CC(=O)N(C)C=C1C(=O)N(C)C(=O)N(C)C1=O" .
output: class 0

====

Kindly state GI50 for each of the entries shown.
tested on: HL-60; assay: NCI tumour cell line growth inhibition, 48 h
The source made the active and inactive calls. Rule as the data show it: active = GI50 up to about 1.1 µM and inactive = higher.

Consider the worked cases shown below.
# molecule, GI50
data = [
    ("COc1ccc(-c2cc3c(nn2)-c2ccccc2C3=O)cc1", "> 10 µM (inactive)"),
    ("Clc1cc2ccccc2c2ccccc12", "35.2 µM (inactive)"),
    ("C=CC1(C)OC2(CCN(C(=O)OCC)CC2)OC1C (stereo unspecified)", "> 100 µM (inactive)"),
    ("CCNC(=O)CCN(C(=O)O)S(=O)(=O)c1ccc(NC(=O)c2ccccc2)cc1", "> 100 µM (inactive)"),
    ("CCN(CC)CCC(=O)Nc1ccc2sc3ccccc3c(=O)c2n1", "7.98 µM (inactive)"),
]

Next molecule, GI50 to be filled in.
input: Please look up its GI50: Cc1ccc(C(=O)NC2C(=O)NC(C(C)C)C(=O)N3CCCC3C(=O)N(C)CC(=O)N(C)C(C(C)C)C(=O)OC2C)c2c1Oc1c(c(C(=O)NC3C(=O)NC(C(C)C)C(=O)N4CCCC4C(=O)N(C)CC(=O)N(C)C(C(C)C)C(=O)OC3C)c3nc(-c4ccccc4)c(=O)oc3c1C)N2 (stereo unspecified)
output: 0.00995 µM (active)

====

system: NCI-H522; assay: NCI tumour cell line growth inhibition, 48 h
Activity calls are given as the source filed them. Rule as the data show it: active = GI50 up to about 1.1 µM and inactive = higher.
property.name: GI50

Consider the worked cases shown below.
# molecule, GI50
records = [
    ("CC1=C(C(=O)Nc2ccccc2C)C(c2ccc(C3C(C(=O)Nc4ccccc4C)=C(C)NC(C)=C3C(=O)Nc3ccccc3C)cc2)C(C(=O)Nc2ccccc2C)=C(C)N1", "1.89 µM (inactive)"),
    ("Cc1cccc(=O)c([O-])c1.Cc1cccc(=O)c([O-])c1.[Bi+3].[Cl-]", "2.03 µM (inactive)"),
    ("C[C@]12CCC(=O)C(OC(=O)c3ccc([N+](=O)[O-])cc3)=C1CCC2=O", "> 100 µM (inactive)"),
]

Could you report GI50 for every entry in the following list?
1. CC1=CC(=O)c2c(O)cccc2C1=O [PLUMBAGIN]
2. O=C1c2ccccc2C(=O)c2c1ccc1c2N=C(c2ccc(Br)cc2)CC(c2cccc3ccccc23)N1 (stereo not given)

output:
1. 1.57 µM (inactive)
2. > 100 µM (inactive)

====

tested on: TK-10; assay: NCI tumour cell line growth inhibition, 48 h
Activity calls are given as the source filed them. No stated cut-off is given here; in the data, active = GI50 up to about 1.1 µM and inactive = higher.
Please state which outcome applies, choosing from active, inactive

Look over these answered cases.
# molecule, label.class
rows = [
    ("CC1(C)C=C(/C=C2/N(S(=O)(=O)C(F)(F)F)C(/C=C3/N(S(=O)(=O)C(F)(F)F)C(C)(C#N)CC3(C)C)=CC2(C)C)N=C1/C=C1/CC(C)(C)C(=O)N1 (configuration not stated)", "inactive"),
    ("Cc1cccc2c1Oc1ccccc1C2NC(=O)c1ccc([N+](=O)[O-])cc1 (configuration not stated)", "inactive"),
    ("NNC(=S)N/N=C(\\CCCC(=O)NCCc1ccccc1)CC(=O)c1ccccc1", "inactive"),
    ("Cc1ccc(C(=O)NC2C(=O)NC(C(C)C)C(=O)N3CCCC3C(=O)N(C)CC(=O)N(C)C(C(C)C)C(=O)OC2C)c2c1Oc1c(c(C(=O)NC3C(=O)NC(C(C)C)C(=O)N4CCCC4C(=O)N(C)CC(=O)N(C)C(C(C)C)C(=O)OC3C)c3nc(-c4ccccc4)c(=O)oc3c1C)N2 (configuration not stated)", "active"),
]

input: I would be grateful if you could indicate the recorded call for Nc1nc(Cl)cc(NCC2(O)CC(CO)C2)n1 (configuration not stated) .
output: inactive

input: I would be grateful if you could indicate the recorded call for Cc1ccc(N2C(N)=C(C#N)C(C#N)(C#N)C2c2ccccc2)cc1 (configuration not stated) .
output: inactive

input: I would be grateful if you could indicate the recorded call for O=C1C(=c2cc3c(c4ccccc24)=NC24CCCCC2C(c2ccccc2)C=C(c2ccccc2)N34)C(=O)c2ccccc21 (configuration not stated) .
output: inactive
